System: NCI-H322M lung
methodNotes: NCI-60 one-dose screen, 48 h (100 = growth as untreated, 0 = no growth, -100 = all killed)
conditionSet: 10 µM unless noted
Method: Growth inhibition of the NCI-H322M human Non-Small Cell Lung tumor cell line is measured as a screen for anti-cancer activity. Cells are grown in 96 well plates and exposed to the test compound for 48 hours. Compounds are tested at a single concentration, which is 10^-5 M for most compounds. The reported endpoint is percent growth (GI% or GIPRCNT), where numbers from 0 - 100% represent growth inhibition, and numbers from -100% - 0 represent cell death. […]
The panel holds about 83,000 compounds, 20% with a hit somewhere; the sample as a whole holds those more often.
Labelling field: enter Met if recorded growth is less than 40%. Enter Not met if it equals or exceeds that cut-off.

Please review the entries below; each comes with its answer.
Input line: Below 40% on growth? Entry Clc1ccc2c(NCCNC34CC5CC(CC(C5)C3)C4)ccnc2c1
Output line: Met

Input line: Cc1nc(Nc2ccccn2)sc1C1=NNC(c2ccccc2F)C1 (configuration not stated) ?
Output line: Not met

Input line: Field entry: CC(C)(C)c1cc(-c2cc(-c3ccccc3)[nH]c(=O)c2C#N)cc(C(C)(C)C)c1
Output line: Met

Input line: Now the compound Cc1ccc(Cl)cc1NC(=O)Nc1nc2ccc([N+](=O)[O-])cc2s1
Output line: Met

Input line: How about this compound: COc1ccc(NC2=C(I)C(=O)C(C)=C(C)C2=O)cc1
Output line: Not met

Input line: Thanks! And OC(c1ccccc1)(c1ccccc1)C1CCN(c2ccc3nnc(Cl)n3n2)CC1 ?
Output line: Not met

Input line: Repeat for the following compound: COC(=O)c1cccc(Oc2ccc(NC(=O)Nc3cc(C(F)(F)F)ccc3F)cc2)c1
Output line: Not met

Input line: Okay, and COc1ccc2c(c1)C(Sc1ccc(F)cc1)c1c(nc(N)c(C#N)c1N)O2 (configuration not stated) ?
Output line: Not met

Next:
Input line: Lab log: compare recorded growth with 40%; is it strictly lower for COc1ccc(NC(=O)N/N=C/c2c[nH]c3ccccc23)cc1 ?
Output line: Not met

Input line: Next record, please: NCCCCn1c(SCCc2c[nH]c3ccccc23)nnc1-c1ccc2ccccc2n1
Output line: Met

Input line: Next up: O=C(N=Nc1c(O)[nH]c2ccc(Br)cc12)c1ccc2nc(-c3ccc(Cl)cc3)[nH]c2c1
Output line: Met

* * *

System: OVCAR-3 ovarian
methodNotes: NCI-60 one-dose screen, 48 h (100 = growth as untreated, 0 = no growth, -100 = all killed)
conditionSet: 10 µM unless noted
The panel holds about 83,000 compounds, 20% with a hit somewhere; the sample as a whole holds those more often.
measuredMetric: growth (%)
Unit % implied. Number only.

Input line: Give the measured growth of Cn1cc(-c2cc3nc(-c4c[nH]c5ccccc45)cc(N)n3n2)c2ccccc21 .
Output line: -76.3

Input line: Note, next up: Cc1ccc(C(=O)Nc2cccc(C(=O)NC(=S)Nc3ccc(S(N)(=O)=O)cc3)c2)cc1
Output line: 78.8

Input line: Query Cn1cc(-c2cc(N)n3nc(-c4c[nH]c5ccc(Cl)cc45)cc3n2)c2cccnc21 next
Output line: -71.3

Consider the additional compound presented here.
Input line: Request the reported growth associated with COc1ccc(/C=C/C(=O)c2ccc(OC)c(S(N)(=O)=O)c2)c(C(F)(F)F)c1
Output line: 15.8

* * *

System: HOP-92 NSCLC
methodNotes: NCI-60 one-dose screen, 48 h
conditionSet: 10 µM unless noted
About 83,000 compounds went through this panel and 20% of them were active in at least one assay; those are over-represented in the sample as a whole. Active and inactive are the calls of the source. How the source made its calls: active means growth percent below 10; inactive means the rest.
Hi there, use one of these labels in your reply, thanks! active, inactive

Input line: GET /call?item= Nc1nn2c(-c3cc4cc(Br)ccc4oc3=O)ccnc2c1N=Nc1ccc(Br)cc1 returns the recorded outcome of this test.
Output line: active

Input line: Also NS(=O)(=O)c1ccc(N2N=C(c3ccc(NC(=O)Nc4ccccc4)cc3)CC2c2ccc(Br)cc2)cc1 (stereo not given) , if possible.
Output line: active

Input line: Another compound to check: COc1ccc(-c2nnc3c(/C=C/c4ccc(Br)cc4)nc4ccccc4n23)cc1
Output line: inactive

Input line: Try this compound next: C[C@@H](Nc1c(C#N)cnc2ccc(-c3cnc4[nH]ncc4c3)cc12)c1ccccc1
Output line: active

More entries:
Input line: Hello, I am checking results. What call was entered for O=C1/C(=C/c2cccc3c2OCO3)Cc2c(F)cc(Br)cc21 ?
Output line: inactive

* * *

Test system: ACHN renal
methodNotes: NCI-60 one-dose screen, 48 h (100 = growth as untreated, 0 = no growth, -100 = all killed)
conditionSet: 10 µM unless noted
This is part of a sample that, as a whole, favours compounds with a hit. Of some 83,000 tested, about 20% had one in any assay. Active and inactive are the calls of the source. Rule for the calls: active = growth percent below 10; inactive = the rest.
Each item that follows carries a reported growth.

Input line: Sample COc1ccc2c(c1)C(=O)N(C)C2C1c2c(cc3c(c2OC)OCO3)CCN1C (centres undefined) — what was its growth?
Output line: 46.5% (inactive)

Input line: Moving on to the next molecule: O=C1/C(=C/C=C/c2ccco2)SC(=S)N1CC(=S)C1C=CS(=O)(=O)C1 (centres undefined)
Output line: 100% (inactive)

Input line: Also need Cc1nc(N)ncc1-c1ccc2ncnc(N3CCc4cc(F)c(Cl)cc43)c2c1 , thanks.
Output line: 27.2% (inactive)

---
Input line: Fill blank: measured growth of the molecule C[C@H]1[C@@H](CC(=O)N[C@@H](Cc2coc3ccccc23)B(O)O)O[C@@H]2OC3(C)CC[C@H]4[C@H](C)CC[C@@H]1[C@@]24O3 is ____.
Output line: 6.94% (active)

Input line: One more molecule: COc1ccc(C(=O)/C=C/c2ccc3c(c2)OCCO3)cc1S(N)(=O)=O
Output line: 69.6% (inactive)

Input line: What do we get for O=C(COc1ccc(/C=C2/C(=O)Nc3ccc(Cl)cc32)cc1)Nc1ccc(Br)cc1 ?
Output line: -82.9% (active)

Input line: For FC(F)(F)c1cc2c(Cl)ncnc2n1CCN1CCOCC1 then?
Output line: -45.4% (active)

Input line: And then Cn1cc(-c2cc(N)n3nc(-c4c[nH]c5ccc(Cl)cc45)cc3n2)c2cccnc21 , what is it?
Output line: -98.8% (active)

Input line: Ok, now CCCCCCCCCCCCCCCCCC(=O)Nc1ccc(OC)cc1
Output line: 105% (inactive)

* * *

Below is a list of entries, each paired with its recorded growth value.
Tested on: 786-0 renal
methodNotes: NCI-60 one-dose screen, 48 h (100 = growth as untreated, 0 = no growth, -100 = all killed)
conditionSet: 10 µM unless noted
Compounds without any hit were thinned out: in the full panel of roughly 83,000, 20% have a hit.
The answer is to be given in %; state only the numeric part.

Input line: Look at this molecule and give its reported growth. O=C(CSc1nnc(-c2ccc(-c3nc4ccccc4[nH]3)cc2)o1)Nc1ccc(Br)cc1
Output line: -40.9

***
Input line: If you can, please state the reported growth value of CC(C)(C)c1cc(-c2cc(-c3ccccc3)[nH]c(=O)c2C#N)cc(C(C)(C)C)c1 .
Output line: 23

Input line: How about this molecule: COC(=O)c1c(C(=O)OC)c2c3ccccc3c3ccccc3n2c1C(=O)C(F)(F)F
Output line: 102

Input line: Do the same for CN(C(=O)CN1C(=O)/C(=C/c2ccco2)SC1=S)C1CCS(=O)(=O)C1 (stereo not given) please
Output line: 93.4

Input line: Next molecule up: Oc1cncc(-c2ccc3ncnc(N4CCc5cc(F)c(Cl)cc54)c3c2)c1
Output line: 35.4

* * *

Tested on: NCI-H322M lung
methodNotes: NCI-60 one-dose screen, 48 h
conditionSet: 10 µM unless noted
This is part of a sample that, as a whole, favours compounds with a hit. Of some 83,000 tested, about 20% had one in any assay. The source made the active and inactive calls. The calls were made as follows: active = growth percent below 10; inactive = the rest.
Pick one and only one: active, inactive

Input line: Could you please tell me the result logged for CN(C)C(=O)c1cc(-c2ccc3ncnc(N4CCc5cc(F)c(Cl)cc54)c3c2)cnc1N in this assay?
Output line: active

Input line: Now give it for O=C(c1cc2cc(OCCCN3CCC3)ccc2[nH]1)N1C[C@@H](CCl)c2c1cc(OCc1ccccc1)c1ccccc21 too.
Output line: active

Input line: What do you get for CCCCC[C@@H]1C/C=C(\C)[C@@H](O)C(C)(C)C(=O)[C@@H](C)/C=C(\C)[C@@H]2C[C@H](O)C[C@](O)(CC(=O)O1)O2 ?
Output line: inactive

Input line: And O=C(CSc1nc2ccccc2c(=O)[nH]1)NNC(=O)c1ccccc1Cl ?
Output line: inactive

Input line: Moving on to the next compound: COc1ccc(N=Nc2c(N)nn3c(-c4cc5ccccc5oc4=O)ccnc23)cc1
Output line: inactive

Input line: Check COc1ccc(/C=C/C(=O)c2ccc(S(=O)(=O)NCCNc3nc(N(C)C)nc(N4CCOCC4)n3)cc2)cc1 too.
Output line: inactive

Input line: Next entry: CCOc1ccc(-c2cc(-c3cc(C(C)C)c(O)cc3C)nn2-c2ccc(S(N)(=O)=O)cc2)cc1
Output line: inactive

Input line: Lookup COc1cc(NC(=O)CSc2nnc(-c3ccc(-c4nc5ccc(Cl)cc5[nH]4)cc3)o2)cc(OC)c1OC
Output line: inactive

Ref: PubChem BioAssay (NCI)
